Source of measurements: ChEMBL document CHEMBL4043303

# TARGET OR SYSTEM: Melanocyte-stimulating hormone receptor (Homo sapiens, UniProt Q01726)
# Sequence (Q01726 whole entry, looked up): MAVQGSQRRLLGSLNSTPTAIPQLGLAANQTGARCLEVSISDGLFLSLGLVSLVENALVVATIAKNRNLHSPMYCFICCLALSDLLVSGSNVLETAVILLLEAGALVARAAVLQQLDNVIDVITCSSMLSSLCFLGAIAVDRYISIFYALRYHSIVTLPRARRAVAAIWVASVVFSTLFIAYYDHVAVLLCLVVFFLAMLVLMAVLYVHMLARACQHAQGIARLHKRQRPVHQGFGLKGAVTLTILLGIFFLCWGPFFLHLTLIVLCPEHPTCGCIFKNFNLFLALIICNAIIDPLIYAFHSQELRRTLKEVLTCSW
# PROTOCOL DETAILS: Agonist activity at human MC1R expressed in low doxycyclin-treated HEK293 cell membranes assessed as increase in cAMP production after 45 mins by HTRF method
# Type: functional, cell-based
Recorded Activity for the following compounds
Response body: numeric value in %, unit text excluded.

Exercise: Param item = CC[C@H](C)[C@@H]1NC(=O)[C@@H]2CCCN2C(=O)[C@@H]2CCCN2C(=O)[C@H]([C@@H](C)CC)NC(=O)[C@H](CO)NC(=O)[C@H](C)NC(=O)[C@H]([C@H](C)O)NC(=O)[C@@H]2CSSC[C@H](NC1=O)C(=O)N(C)[C@@H](Cc1cnc[nH]1)C(=O)N[C@H](Cc1ccccc1)C(=O)N[C@@H](CCCNC(=N)N)C(=O)N(C)[C@@H](Cc1c[nH]c3ccccc13)C(=O)N[C@@H](CCCNC(=N)N)C(=O)N2 ; retrieve measured Activity.
Key: 100

Exercise: Try CC[C@H](C)[C@@H]1NC(=O)[C@@H]2CCCN2C(=O)[C@H](Cc2c[nH]c3ccccc23)NC(=O)[C@H](CCCNC(=N)N)NC(=O)[C@H](Cc2ccccc2)NC(=O)[C@H](Cc2cnc[nH]2)NC(=O)[C@H]([C@@H](C)O)NC(=O)[C@@H]2CSSC[C@H](NC1=O)C(=O)N[C@@H](Cc1ccccc1)C(=O)N1CCC[C@H]1C(=O)N[C@@H](CC(=O)O)C(=O)NCC(=O)N[C@@H](CCCNC(=N)N)C(=O)N2 next.
Key: 100

Exercise: Try CC[C@H](C)[C@@H]1NC(=O)[C@@H]2CCCN2C(=O)[C@@H]2CCCN2C(=O)[C@H]([C@@H](C)CC)NC(=O)[C@H](CO)NC(=O)[C@H](C)NC(=O)[C@H]([C@H](C)O)NC(=O)[C@@H]2CSSC[C@H](NC1=O)C(=O)N[C@@H](Cc1cnc[nH]1)C(=O)N[C@H](Cc1ccccc1)C(=O)N[C@@H](CCCNC(=N)N)C(=O)N(C)[C@@H](Cc1c[nH]c3ccccc13)C(=O)N[C@@H](CCCNC(=N)N)C(=O)N2 next.
Key: 100

---

# TARGET OR SYSTEM: Melanocyte-stimulating hormone receptor (Homo sapiens, UniProt Q01726)
# PROTOCOL DETAILS: Agonist activity at human MC1R expressed in low doxycyclin-treated HEK293 cell membranes assessed as increase in cAMP production after 45 mins by HTRF method
# Assay type: functional, cell-based
Recorded Activity for the following compounds
Response body: numeric value in %, unit text excluded.

# annotated cases, reported Activity shown
- CC[C@H](C)[C@@H]1NC(=O)[C@@H]2CCCN2C(=O)[C@H](Cc2c[nH]c3ccccc23)NC(=O)[C@H](CCCNC(=N)N)NC(=O)[C@@H](Cc2ccccc2)NC(=O)[C@H](Cc2cnc[nH]2)N(C)C(=O)[C@H]([C@@H](C)O)NC(=O)[C@@H]2CSSC[C@H](NC1=O)C(=O)N[C@@H](Cc1ccccc1)C(=O)N1CCC[C@H]1C(=O)N[C@@H](CC(=O)O)C(=O)NCC(=O)N[C@@H](CCCNC(=N)N)C(=O)N2: 100
- CC[C@H](C)[C@@H]1NC(=O)[C@@H]2CCCN2C(=O)[C@H](Cc2c[nH]c3ccccc23)NC(=O)[C@H](CCCNC(=N)N)N(C)C(=O)[C@@H](Cc2ccccc2)NC(=O)[C@H](Cc2cnc[nH]2)N(C)C(=O)[C@H]([C@@H](C)O)NC(=O)[C@@H]2CSSC[C@H](NC1=O)C(=O)N[C@@H](Cc1ccccc1)C(=O)N1CCC[C@H]1C(=O)N[C@@H](CC(=O)O)C(=O)NCC(=O)N[C@@H](CCCNC(=N)N)C(=O)N2: 100
- CC[C@H](C)[C@@H]1NC(=O)[C@@H]2CCCN2C(=O)[C@@H]2CCCN2C(=O)[C@H]([C@@H](C)CC)NC(=O)[C@H](CO)NC(=O)[C@H](C)NC(=O)[C@H]([C@H](C)O)NC(=O)[C@@H]2CSSC[C@H](NC1=O)C(=O)N[C@@H](Cc1cnc[nH]1)C(=O)N[C@H](Cc1ccccc1)C(=O)N[C@@H](CCCNC(=N)N)C(=O)N[C@@H](Cc1c[nH]c3ccccc13)C(=O)N[C@@H](CCCNC(=N)N)C(=O)N2: 100
- CC[C@H](C)[C@@H]1NC(=O)[C@@H]2CCCN2C(=O)[C@H](Cc2c[nH]c3ccccc23)NC(=O)[C@H](CCCNC(=N)N)N(C)C(=O)[C@@H](Cc2ccccc2)NC(=O)[C@H](Cc2cnc[nH]2)NC(=O)[C@H]([C@@H](C)O)NC(=O)[C@@H]2CSSC[C@H](NC1=O)C(=O)N[C@@H](Cc1ccccc1)C(=O)N1CCC[C@H]1C(=O)N[C@@H](CC(=O)O)C(=O)NCC(=O)N[C@@H](CCCNC(=N)N)C(=O)N2: 100

Exercise: Param item = CC[C@H](C)[C@@H]1NC(=O)[C@@H]2CCCN2C(=O)[C@H](Cc2c[nH]c3ccccc23)N(C)C(=O)[C@H](CCCNC(=N)N)N(C)C(=O)[C@@H](Cc2ccccc2)NC(=O)[C@H](Cc2cnc[nH]2)N(C)C(=O)[C@H]([C@@H](C)O)NC(=O)[C@@H]2CSSC[C@H](NC1=O)C(=O)N[C@@H](Cc1ccccc1)C(=O)N1CCC[C@H]1C(=O)N[C@@H](CC(=O)O)C(=O)NCC(=O)N[C@@H](CCCNC(=N)N)C(=O)N2 ; retrieve measured Activity.
Key: 100
